Listed here are compounds together with their documented viability at 1 µM.
System: expanded OPCs
Assay: cells
Conditions: Rattus norvegicus, 72 h, read-out: 1 µM (% DMSO), alamarBlue viability of expanded OPCs, compound at 1 µM, sheet All Tox data
Could you give me the number in %? Just the number is fine.

// worked examples, viability at 1 µM included
Inquiry: Please look at this compound and report its viability at 1 µM: CN(Cc1cnc2nc(N)nc(N)c2n1)c1ccc(C(=O)N[C@@H](CCC(=O)O)C(=O)O)cc1 [Methotrexate]
Reply text: 68.5

Inquiry: Using the record for NC1=NC(=O)C(c2ccccc2)O1 (stereo not drawn) , state its measured viability at 1 µM.
Reply text: 104

Inquiry: Answer with reported viability at 1 µM of `CC(C)c1ccc2oc3nc(N)c(C(=O)O)cc3c(=O)c2c1`
Reply text: 88.6

***
Inquiry: Indicate the recorded viability at 1 µM value for this compound: `CC[C@H]1OC(=O)[C@H](C)[C@@H](O[C@H]2C[C@@](C)(OC)[C@@H](O)[C@H](C)O2)[C@H](C)[C@@H](O[C@@H]2O[C@H](C)C[C@H](N(C)C)[C@H]2O)[C@](C)(O)C[C@@H](C)C(=O)[C@H](C)[C@@H](O)[C@]1(C)O`
Reply text: 89.6

Inquiry: Tell us which viability at 1 µM value is on record for NC[C@H]1CC[C@H](C(=O)Oc2ccc(CCC(=O)O)cc2)CC1 [Cetraxate]
Reply text: 92.1

Inquiry: Give the reported viability at 1 µM for this compound. Oc1ccc(C2CNCCc3c2cc(O)c(O)c3Cl)cc1 (stereo not drawn)
Reply text: 97.4

Inquiry: Tell me viability at 1 µM reported for CC(=O)SCC(Cc1ccccc1)C(=O)NCC(=O)OCc1ccccc1 (stereo not drawn)
Reply text: 92.9

Inquiry: Kindly indicate its recorded viability at 1 µM. Item: `O=c1c(O[C@@H]2O[C@H](CO)[C@@H](O)[C@H](O)[C@H]2O)c(-c2ccc(O)c(O)c2)oc2cc(O)cc(O)c12`
Reply text: 92.9

Inquiry: Answer with the recorded viability at 1 µM of `COc1ccc2nc([S@@+]([O-])Cc3ncc(C)c(OC)c3C)[nH]c2c1` only.
Reply text: 90

----------
Test system: expanded OPCs
Assay: cells
Conditions: Rattus norvegicus, 72 h, read-out: 10 µM (% DMSO), alamarBlue viability of expanded OPCs, compound at 10 µM, sheet All Tox data
Each item that follows carries a reported viability at 10 µM.
Form entry: value (%) — number only.

Recorded viability at 10 µM, per entry:
Inquiry: Using known records, supply viability at 10 µM for `Cc1ccc(-c2nc3ccc(C)cn3c2CC(=O)N(C)C)cc1`
Reply text: 93.5

Inquiry: Using the record for `Nc1nnc(-c2cccc(Cl)c2Cl)c(N)n1` , state its measured viability at 10 µM.
Reply text: 99.5

Inquiry: State its viability at 10 µM: CN(Cc1cnc2nc(N)nc(N)c2n1)c1ccc(C(=O)N[C@@H](CCC(=O)O)C(=O)O)cc1 [Methotrexate]
Reply text: 52.8

Inquiry: Look up viability at 10 µM of CC(C(=O)O)c1ccc(-c2ccccc2)c(F)c1 (centres unmarked) and report it.
Reply text: 91.2

Inquiry: Identify measured viability at 10 µM associated with CCC(C(N)=O)N1CCCC1=O (centres unmarked)
Reply text: 91.7

Inquiry: Please give measured viability at 10 µM of the following entry: `COc1cc(C)c(Cc2cnc(N)nc2N)cc1OC`
Reply text: 95.4

New cases:
Inquiry: Supply recorded viability at 10 µM for `CS(=O)(=O)c1ccc(C2=C(c3ccccc3)C(=O)OC2)cc1` here.
Reply text: 115

Inquiry: Give a short answer stating reported viability at 10 µM for NC(=O)C[S+]([O-])C(c1ccccc1)c1ccccc1 (centres unmarked) .
Reply text: 99.6

Inquiry: Kindly indicate its recorded viability at 10 µM. Item: `C[C@@H]1O[C@@H](OC[C@H]2O[C@@H](Oc3c(-c4ccc(O)c(O)c4)oc4cc(O)cc(O)c4c3=O)[C@H](O)[C@@H](O)[C@@H]2O)[C@H](O)[C@H](O)[C@H]1O`
Reply text: 106
